Target: Rsk1(r) (Rattus norvegicus, UniProt Q63531)
Sequence (Q63531 whole entry): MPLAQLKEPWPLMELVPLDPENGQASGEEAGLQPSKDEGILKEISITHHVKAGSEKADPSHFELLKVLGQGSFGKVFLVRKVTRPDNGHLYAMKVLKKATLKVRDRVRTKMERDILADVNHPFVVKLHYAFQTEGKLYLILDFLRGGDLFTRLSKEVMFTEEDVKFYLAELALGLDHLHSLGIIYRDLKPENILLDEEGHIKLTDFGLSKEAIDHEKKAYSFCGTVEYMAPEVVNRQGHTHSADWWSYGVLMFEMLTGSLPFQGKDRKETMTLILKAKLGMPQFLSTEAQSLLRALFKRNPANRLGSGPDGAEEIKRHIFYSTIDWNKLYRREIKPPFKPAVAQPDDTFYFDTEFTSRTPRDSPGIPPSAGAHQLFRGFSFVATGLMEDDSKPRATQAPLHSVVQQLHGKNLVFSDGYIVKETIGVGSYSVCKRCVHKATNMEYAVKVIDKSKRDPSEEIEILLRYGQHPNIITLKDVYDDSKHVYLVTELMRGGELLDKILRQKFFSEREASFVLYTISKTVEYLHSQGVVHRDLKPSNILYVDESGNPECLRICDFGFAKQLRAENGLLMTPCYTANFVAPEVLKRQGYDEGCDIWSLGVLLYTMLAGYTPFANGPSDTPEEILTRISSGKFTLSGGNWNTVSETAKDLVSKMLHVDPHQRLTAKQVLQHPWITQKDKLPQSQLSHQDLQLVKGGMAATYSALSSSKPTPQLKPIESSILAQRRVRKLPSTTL
Assay: Protein kinase selectivity panel
Type: biochemical
Settings: 1.0 μM compound, 10 μM ATP
Experimental: Protein kinase selectivity assays were performed as described in the scientific literature (Davies, S. P., et al., Biochem. J. 2000, 351, 95-105). Briefly, protein kinases were assayed for their ability to phosphorylate the appropriate peptide/protein substrates in the presence of 1.0 μM compound. Assays were done using 10 μM ATP and were linear with respect to time. […]
Activity at Protein Kinase Assays (% of control), Rsk1(r) for assorted compounds

The examples below pair each entry with its known result.
INSERT INTO assay_data (mol_smiles, experimental_value) VALUES
  ('CN(C)c1nc2ccc1CCCCn1cc(c3ccccc31)C1=C(C(=O)NC1=O)c1cn(c3ccccc13)CCC2', '37 % of control'),
  ('O=C1NC(=O)C2=C1c1cn(c3ccccc13)CCCc1cc(nc(N3CCCC3)c1)CCCn1cc2c2ccccc21', '5 % of control'),
  ('O=C1NC(=O)C2=C1c1cn(c3ccccc13)CCCc1ccc(c(N3CCCC3)n1)CCCn1cc2c2ccccc21', '67 % of control');

**Query** Suppose we examine the compound CN(C)c1cc2cc(n1)CCCn1cc(c3ccccc31)C1=C(C(=O)NC1=O)c1cn(c3ccccc13)CCC2 ; what Activity at Protein Kinase Assays (% of control), Rsk1(r) value has been reported?
**Result** 7 % of control

----------
Target: CSK(h) (Homo sapiens, UniProt P41240)
Sequence (P41240 whole entry): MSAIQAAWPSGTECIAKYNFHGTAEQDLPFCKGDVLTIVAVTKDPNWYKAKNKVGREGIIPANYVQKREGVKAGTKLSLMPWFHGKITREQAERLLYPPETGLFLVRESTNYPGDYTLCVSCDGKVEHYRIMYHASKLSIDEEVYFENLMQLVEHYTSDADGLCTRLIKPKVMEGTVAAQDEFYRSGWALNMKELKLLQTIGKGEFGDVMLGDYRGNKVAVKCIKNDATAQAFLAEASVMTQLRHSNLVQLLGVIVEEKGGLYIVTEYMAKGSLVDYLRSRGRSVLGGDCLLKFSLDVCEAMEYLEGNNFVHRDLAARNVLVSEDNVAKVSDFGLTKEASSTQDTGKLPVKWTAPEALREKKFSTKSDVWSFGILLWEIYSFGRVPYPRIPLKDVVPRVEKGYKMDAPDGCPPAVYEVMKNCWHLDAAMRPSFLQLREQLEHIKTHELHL
Assay: Protein kinase selectivity panel
Type: biochemical
Conditions: 1.0 μM compound, 10 μM ATP
Experimental: Protein kinase selectivity assays were performed as described in the scientific literature (Davies, S. P., et al., Biochem. J. 2000, 351, 95-105). Briefly, protein kinases were assayed for their ability to phosphorylate the appropriate peptide/protein substrates in the presence of 1.0 μM compound. Assays were done using 10 μM ATP and were linear with respect to time. […]
Activity at Protein Kinase Assays (% of control), CSK(h) for assorted compounds

**Query** Suppose we examine the compound CN(C)c1cc2cc(n1)CCCn1cc(c3ccccc31)C1=C(C(=O)NC1=O)c1cn(c3ccccc13)CCC2 [Cpd 2] ; what Activity at Protein Kinase Assays (% of control), CSK(h) value has been reported?
**Result** 133 % of control

**Query** Suppose we examine the compound O=C1NC(=O)C2=C1c1cn(c3ccccc13)CCCc1ccc(c(N3CCCC3)n1)CCCn1cc2c2ccccc21 [Cpd 7] ; what Activity at Protein Kinase Assays (% of control), CSK(h) value has been reported?
**Result** 129 % of control

**Query** Suppose we examine the compound CN(C)c1nc2ccc1CCCCn1cc(c3ccccc31)C1=C(C(=O)NC1=O)c1cn(c3ccccc13)CCC2 [Cpd 1] ; what Activity at Protein Kinase Assays (% of control), CSK(h) value has been reported?
**Result** 95 % of control

**Query** Suppose we examine the compound O=C1NC(=O)C2=C1c1cn(c3ccccc13)CCCc1cc(nc(N3CCCC3)c1)CCCn1cc2c2ccccc21 [Cpd 6] ; what Activity at Protein Kinase Assays (% of control), CSK(h) value has been reported?
**Result** 125 % of control

----------
Target: SGK(h) (Homo sapiens, UniProt O00141, S422D)
Sequence (O00141 60-431 S422D limits assumed): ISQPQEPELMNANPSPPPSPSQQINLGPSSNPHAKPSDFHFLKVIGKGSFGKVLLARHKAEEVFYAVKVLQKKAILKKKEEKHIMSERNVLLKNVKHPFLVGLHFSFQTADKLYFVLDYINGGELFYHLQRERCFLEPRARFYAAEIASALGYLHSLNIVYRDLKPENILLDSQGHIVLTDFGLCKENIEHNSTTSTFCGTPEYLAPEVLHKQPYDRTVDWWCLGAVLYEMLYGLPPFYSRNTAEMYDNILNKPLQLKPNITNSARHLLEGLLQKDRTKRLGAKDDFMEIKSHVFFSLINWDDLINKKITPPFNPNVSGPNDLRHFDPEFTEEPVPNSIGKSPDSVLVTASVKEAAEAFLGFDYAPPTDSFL
Test: Protein kinase selectivity panel
Format: biochemical
Settings: 1.0 μM compound, 10 μM ATP
Activity at Protein Kinase Assays (% of control), SGK(h) for assorted molecules

The examples below pair each entry with its known result.
INSERT INTO measurements (mol_smiles, experimental_value) VALUES
  ('O=C1NC(=O)C2=C1c1cn(c3ccccc13)CCCc1ccc(c(N3CCCC3)n1)CCCn1cc2c2ccccc21', '93 % of control'),
  ('O=C1NC(=O)C2=C1c1cn(c3ccccc13)CCCc1cc(nc(N3CCCC3)c1)CCCn1cc2c2ccccc21', '109 % of control'),
  ('CN(C)c1nc2ccc1CCCCn1cc(c3ccccc31)C1=C(C(=O)NC1=O)c1cn(c3ccccc13)CCC2', '93 % of control');

# input for lookup
**Query** Suppose we examine the molecule CN(C)c1cc2cc(n1)CCCn1cc(c3ccccc31)C1=C(C(=O)NC1=O)c1cn(c3ccccc13)CCC2 ; what Activity at Protein Kinase Assays (% of control), SGK(h) value has been reported?
**Result** 105 % of control
